I'd be grateful if you could share measured IC50 for these entries.
Molecular target: human Gal-1 (hGal-1) (Homo sapiens, UniProt P09382, C131S/C17S/C43S/C61S/C89S)
Assay: Competitive binding assay: biotinylated hGal-1 binding to microplate-adsorbed asialofetuin (ASF)
Details: IC50 values from several measurements given as geomean
The figure you give is taken to be in nM; do not add the unit.

[ask] Give a short answer stating reported IC50 for CO[C@@H]1[C@@H](n2cc(-c3ccc(Cl)c(F)c3F)nn2)[C@@H](O)[C@@H](CO)O[C@@H]1Cc1cn(C2CC(F)C2)nn1 (single isomer, unassigned) [Example 2.1.60.B] .
[reply] 1190

[ask] Give a short answer stating reported IC50 for CO[C@@H]1[C@@H](n2cc(-c3ccc(Br)c(F)c3F)nn2)[C@@H](O)[C@@H](CO)O[C@@H]1Cc1cn([C@H]2CCC[C@@H]2F)nn1 (relative stereo) .
[reply] 4960

[ask] Give a short answer stating reported IC50 for CO[C@@H]1[C@@H](n2cc(-c3ccc(C)c(F)c3F)nn2)[C@@H](O)[C@@H](CO)O[C@@H]1Cc1cn(C2(C(F)(F)F)COC2)nn1 .
[reply] 800

---

Target: human Gal-1 (hGal-1) (Homo sapiens, UniProt P09382, C131S/C17S/C43S/C61S/C89S)
Experiment: Competitive binding assay: biotinylated hGal-1 binding to microplate-adsorbed asialofetuin (ASF)
Conditions: IC50 values from several measurements given as geomean
OBSERVABLE: IC50 (nM)
The figure you give is taken to be in nM; do not add the unit.

[ask] Give a short answer stating reported IC50 for CO[C@@H]1[C@@H](n2cc(-c3ccc(F)c(F)c3F)nn2)[C@@H](O)[C@@H](CO)O[C@@H]1Cc1cn(C2(CO)CCCC2)nn1 .
[reply] 600

[ask] Give a short answer stating reported IC50 for CO[C@@H]1[C@@H](n2cc(-c3ccc(Cl)c(F)c3F)nn2)[C@@H](O)[C@@H](CO)O[C@@H]1Cc1cn(C(C)(C)CO)nn1 .
[reply] 1670

[ask] Give a short answer stating reported IC50 for CO[C@@H]1[C@@H](n2cc(-c3ccc(Br)c(F)c3F)nn2)[C@@H](O)[C@@H](CO)O[C@@H]1Cn1cc(C(C)(C)O)nn1 .
[reply] 5490

[ask] Give a short answer stating reported IC50 for CO[C@@H]1[C@@H](n2cc(-c3ccc(Cl)c(F)c3F)nn2)[C@@H](O)[C@@H](CO)O[C@@H]1Cc1cn(C2(C)COC2)nn1 .
[reply] 760

[ask] Give a short answer stating reported IC50 for CO[C@@H]1[C@@H](n2cc(-c3ccc(Cl)c(F)c3F)nn2)[C@@H](O)[C@@H](CO)O[C@@H]1Cc1cn(C2(CO)CCCC2)nn1 .
[reply] 2250

[ask] Give a short answer stating reported IC50 for CO[C@@H]1[C@@H](n2cc(-c3ccc(Br)c(F)c3F)nn2)[C@@H](O)[C@@H](CO)O[C@@H]1Cc1cn(C2(C)CC(F)(F)C2)nn1 .
[reply] 2410

---

Biological target: human Gal-3 (hGal-3) (Homo sapiens (Human), UniProt P17931)
Sequence (P17931 whole entry): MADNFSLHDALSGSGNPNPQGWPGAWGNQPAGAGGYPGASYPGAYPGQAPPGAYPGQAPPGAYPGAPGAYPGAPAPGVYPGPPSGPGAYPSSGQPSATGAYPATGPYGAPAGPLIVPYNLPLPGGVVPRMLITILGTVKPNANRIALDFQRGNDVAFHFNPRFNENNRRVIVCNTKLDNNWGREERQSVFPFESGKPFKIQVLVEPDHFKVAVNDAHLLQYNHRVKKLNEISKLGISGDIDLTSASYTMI
Assay: Competitive binding assay: biotinylated hGal-3 binding to microplate-adsorbed asialofetuin (ASF)
Conditions: IC50 values from several measurements given as geomean
I'd be grateful if you could share measured pIC50 for these entries.
Formally, pIC50 is defined as -log10 of the concentration c, with c in mol/L.

[ask] Give a short answer stating reported pIC50 for CO[C@@H]1[C@@H](n2cc(-c3ccc(Cl)c(F)c3F)nn2)[C@@H](O)[C@@H](CO)O[C@@H]1Cc1cn(C2CC(F)C2)nn1 (single isomer, unassigned) [Example 2.1.60.B] .
[reply] 7.40

[ask] Give a short answer stating reported pIC50 for CO[C@@H]1[C@@H](n2cc(-c3ccc(Br)c(F)c3F)nn2)[C@@H](O)[C@@H](CO)O[C@@H]1Cn1cc(C23CC(C2)C3)nn1 [Ex 4.2.12.] .
[reply] 7.05

[ask] Give a short answer stating reported pIC50 for CO[C@@H]1[C@@H](n2cc(-c3ccc(F)c(F)c3F)nn2)[C@@H](O)[C@@H](CO)O[C@@H]1Cn1cc(C2CCCC2)nn1 [Ex 3.2.32.] .
[reply] 7.22

[ask] Give a short answer stating reported pIC50 for CO[C@@H]1[C@@H](n2cc(-c3ccc(Br)c(F)c3F)nn2)[C@@H](O)[C@@H](CO)O[C@@H]1Cc1cn(C23CC(OC)(C2)C3)nn1 [Ex 4.1.29.] .
[reply] 7.30

[ask] Give a short answer stating reported pIC50 for CO[C@@H]1[C@@H](n2cc(-c3ccc(Br)c(F)c3F)nn2)[C@@H](O)[C@@H](CO)O[C@@H]1Cc1cn(C2(C(F)F)COC2)nn1 [Ex 4.1.53.] .
[reply] 7.70

[ask] Give a short answer stating reported pIC50 for CO[C@@H]1[C@@H](n2cc(-c3ccc(Cl)c(F)c3F)nn2)[C@@H](O)[C@@H](CO)O[C@@H]1Cc1cn(C2(C(F)F)CCC2)nn1 [Ex 2.1.43.] .
[reply] 7.70

[ask] Give a short answer stating reported pIC50 for CO[C@@H]1[C@@H](n2cc(-c3ccc(F)c(F)c3F)nn2)[C@@H](O)[C@@H](CO)O[C@@H]1Cc1cn(C2(CF)COC2)nn1 [Ex 3.1.52.] .
[reply] 7.52

[ask] Give a short answer stating reported pIC50 for CO[C@@H]1[C@@H](n2cc(-c3ccc(Cl)c(F)c3F)nn2)[C@@H](O)[C@@H](CO)O[C@@H]1Cc1cn([C@H]2CCCC2(F)F)nn1 [Example 2.1.64.B] .
[reply] 7.52

[ask] Give a short answer stating reported pIC50 for CO[C@@H]1[C@@H](n2cc(-c3ccc(Cl)c(F)c3F)nn2)[C@@H](O)[C@@H](CO)O[C@@H]1Cn1cc(C2CCCC2)nn1 [Ex 2.2.32.] .
[reply] 7.30

[ask] Give a short answer stating reported pIC50 for CO[C@@H]1[C@@H](n2cc(-c3ccc(Cl)c(F)c3F)nn2)[C@@H](O)[C@@H](CO)O[C@@H]1Cn1cc(C2(C)CC2)nn1 [Ex 2.2.23.] .
[reply] 7.22

[ask] Give a short answer stating reported pIC50 for CO[C@@H]1[C@@H](n2cc(-c3ccc(F)c(F)c3F)nn2)[C@@H](O)[C@@H](CO)O[C@@H]1Cn1cc(C2(C)CC2)nn1 [Ex 3.2.23.] .
[reply] 7.10

[ask] Give a short answer stating reported pIC50 for COCC1(n2cc(C[C@H]3O[C@H](CO)[C@H](O)[C@H](n4cc(-c5ccc(Br)c(F)c5F)nn4)[C@H]3OC)nn2)CCC1 [Ex 4.1.21.] .
[reply] 7.15

---

I'd be grateful if you could share measured IC50 for these entries.
Molecular target: human Gal-1 (hGal-1) (Homo sapiens, UniProt P09382, C131S/C17S/C43S/C61S/C89S)
Assay: Competitive binding assay: biotinylated hGal-1 binding to microplate-adsorbed asialofetuin (ASF)
Conditions: IC50 values from several measurements given as geomean
The figure you give is taken to be in nM; do not add the unit.

[ask] Give a short answer stating reported IC50 for CO[C@@H]1[C@@H](n2cc(-c3ccc(Cl)c(F)c3F)nn2)[C@@H](O)[C@@H](CO)O[C@@H]1Cc1cn(C2(C(F)(F)F)CCC(F)(F)CC2)nn1 .
[reply] 670

[ask] Give a short answer stating reported IC50 for CO[C@@H]1[C@@H](n2cc(-c3ccc(F)c(F)c3F)nn2)[C@@H](O)[C@@H](CO)O[C@@H]1Cc1cn(C23CC(F)(C2)C3)nn1 .
[reply] 1550

[ask] Give a short answer stating reported IC50 for CO[C@@H]1[C@@H](n2cc(-c3ccc(F)c(F)c3F)nn2)[C@@H](O)[C@@H](CO)O[C@@H]1Cn1cc(C2(C)CC2)nn1 .
[reply] 300

---

I'd be grateful if you could share measured pIC50 for these entries.
Target: human Gal-1 (hGal-1) (Homo sapiens, UniProt P09382, C131S/C17S/C43S/C61S/C89S)
Test: Competitive binding assay: biotinylated hGal-1 binding to microplate-adsorbed asialofetuin (ASF)
Conditions: IC50 values from several measurements given as geomean
Protocol: The inhibitory activity of compounds is determined in competitive binding assays. This spectrophotometric assay measures the binding of biotinylated human Gal-3 (hGal-3) or human Gal-1 (hGal-1), respectively, to a microplate-adsorbed glycoprotein, asialofetuin (ASF) (Proc Natl Acad Sci USA. 2013 Mar. 26; 110(13):5052-7.). […] The calculated IC50 values may fluctuate depending on the daily assay performance. […]
Formally, pIC50 is defined as -log10 of the concentration c, with c in mol/L.

[ask] Give a short answer stating reported pIC50 for CO[C@@H]1[C@@H](n2cc(-c3ccc(C)c(F)c3F)nn2)[C@@H](O)[C@@H](CO)O[C@@H]1Cc1cn(C2(CO)CC(F)(F)C2)nn1 .
[reply] 5.83

[ask] Give a short answer stating reported pIC50 for CO[C@@H]1[C@@H](n2cc(-c3ccc(Cl)c(F)c3F)nn2)[C@@H](O)[C@@H](CO)O[C@@H]1Cc1cn(C2(C(F)(F)F)COC2)nn1 .
[reply] 6.33

[ask] Give a short answer stating reported pIC50 for CO[C@@H]1[C@@H](n2cc(-c3ccc(Br)c(F)c3F)nn2)[C@@H](O)[C@@H](CO)O[C@@H]1Cc1cn(C23CCOC(C)(C2)C3)nn1 .
[reply] 5.69

[ask] Give a short answer stating reported pIC50 for CO[C@@H]1[C@@H](n2cc(-c3ccc(Cl)c(F)c3F)nn2)[C@@H](O)[C@@H](CO)O[C@@H]1Cc1cn([C@H]2CCCC[C@@H]2F)nn1 .
[reply] 5.66

[ask] Give a short answer stating reported pIC50 for CO[C@@H]1[C@@H](n2cc(-c3ccc(Br)c(F)c3F)nn2)[C@@H](O)[C@@H](CO)O[C@@H]1Cc1cn(C23COC(C2)C3)nn1 .
[reply] 5.48

[ask] Give a short answer stating reported pIC50 for CO[C@@H]1[C@@H](n2cc(-c3ccc(Cl)c(F)c3F)nn2)[C@@H](O)[C@@H](CO)O[C@@H]1Cc1cn(C2COCCC2(F)F)nn1 (stereo partly shown) [Example 2.1.73.A] .
[reply] 5.85

[ask] Give a short answer stating reported pIC50 for CO[C@@H]1[C@@H](n2cc(-c3ccc(F)c(F)c3F)nn2)[C@@H](O)[C@@H](CO)O[C@@H]1Cc1cn(C2(CCO)COC2)nn1 .
[reply] 6.38

[ask] Give a short answer stating reported pIC50 for CO[C@@H]1[C@@H](n2cc(-c3ccc(Cl)c(F)c3F)nn2)[C@@H](O)[C@@H](CO)O[C@@H]1Cc1cn(C2CC3(CC3)C2)nn1 .
[reply] 5.10

[ask] Give a short answer stating reported pIC50 for CO[C@@H]1[C@@H](n2cc(-c3ccc(Cl)c(F)c3F)nn2)[C@@H](O)[C@@H](CO)O[C@@H]1Cc1cn(C2CC23CC3(F)F)nn1 (stereo partly shown) .
[reply] 5.56

[ask] Give a short answer stating reported pIC50 for CO[C@@H]1[C@@H](n2cc(-c3ccc(Cl)c(F)c3F)nn2)[C@@H](O)[C@@H](CO)O[C@@H]1Cc1cn([C@H]2CCCC2(F)F)nn1 .
[reply] 5.63

[ask] Give a short answer stating reported pIC50 for CO[C@@H]1[C@@H](n2cc(-c3ccc(F)c(F)c3F)nn2)[C@@H](O)[C@@H](CO)O[C@@H]1Cc1cn(C2(C(F)F)CCC2)nn1 .
[reply] 6.68

[ask] Give a short answer stating reported pIC50 for CO[C@@H]1[C@@H](n2cc(-c3ccc(Br)c(F)c3F)nn2)[C@@H](O)[C@@H](CO)O[C@@H]1Cc1cn(C2(C)COC2)nn1 .
[reply] 5.84

[ask] Give a short answer stating reported pIC50 for CO[C@@H]1[C@@H](n2cc(-c3ccc(Cl)c(F)c3F)nn2)[C@@H](O)[C@@H](CO)O[C@@H]1Cc1cn([C@@H]2CCCC2(F)F)nn1 .
[reply] 6.03

[ask] Give a short answer stating reported pIC50 for CO[C@@H]1[C@@H](n2cc(-c3ccc(Cl)c(F)c3F)nn2)[C@@H](O)[C@@H](CO)O[C@@H]1Cn1cc(C2CC(F)(F)C2)nn1 .
[reply] 5.06

[ask] Give a short answer stating reported pIC50 for CO[C@@H]1[C@@H](n2cc(-c3ccc(Cl)c(F)c3F)nn2)[C@@H](O)[C@@H](CO)O[C@@H]1Cc1cn([C@@H]2CC[C@H]2F)nn1 (relative stereo) [Example 2.1.88.C] .
[reply] 5.77

[ask] Give a short answer stating reported pIC50 for CO[C@@H]1[C@@H](n2cc(-c3ccc(Cl)c(F)c3F)nn2)[C@@H](O)[C@@H](CO)O[C@@H]1Cc1cn([C@@H]2CC[C@@H]2F)nn1 (relative stereo) [Example 2.1.88.A] .
[reply] 5.75

[ask] Give a short answer stating reported pIC50 for CO[C@@H]1[C@@H](n2cc(-c3ccc(F)c(F)c3F)nn2)[C@@H](O)[C@@H](CO)O[C@@H]1Cc1cn(C2(C(F)F)CC2)nn1 .
[reply] 6.62

[ask] Give a short answer stating reported pIC50 for CO[C@@H]1[C@@H](n2cc(-c3ccc(Cl)c(F)c3F)nn2)[C@@H](O)[C@@H](CO)O[C@@H]1Cc1cn(C2[C@H]3CCC[C@@H]23)nn1 (stereo partly shown) .
[reply] 5.69

[ask] Give a short answer stating reported pIC50 for CO[C@@H]1[C@@H](n2cc(-c3ccc(Br)c(F)c3F)nn2)[C@@H](O)[C@@H](CO)O[C@@H]1Cn1cc(C23CC(C2)C3)nn1 .
[reply] 5.48

[ask] Give a short answer stating reported pIC50 for CO[C@@H]1[C@@H](n2cc(-c3ccc(Cl)c(F)c3F)nn2)[C@@H](O)[C@@H](CO)O[C@@H]1Cc1cn(C2(C(F)(F)F)CCOC2)nn1 (single isomer, unassigned) [Example 2.1.77.B] .
[reply] 6.23

[ask] Give a short answer stating reported pIC50 for CO[C@@H]1[C@@H](n2cc(-c3ccc(F)c(F)c3F)nn2)[C@@H](O)[C@@H](CO)O[C@@H]1Cn1cc(C23CC(C2)C3)nn1 .
[reply] 6.01

[ask] Give a short answer stating reported pIC50 for CO[C@@H]1[C@@H](n2cc(-c3ccc(F)c(F)c3F)nn2)[C@@H](O)[C@@H](CO)O[C@@H]1Cc1cn([C@@H]2CCOC[C@H]2F)nn1 (single isomer, unassigned) [Example 3.1.66.C] .
[reply] 6.57
